Target: UniProt:Q9NWZ3
Sequence (Q9NWZ3 whole entry): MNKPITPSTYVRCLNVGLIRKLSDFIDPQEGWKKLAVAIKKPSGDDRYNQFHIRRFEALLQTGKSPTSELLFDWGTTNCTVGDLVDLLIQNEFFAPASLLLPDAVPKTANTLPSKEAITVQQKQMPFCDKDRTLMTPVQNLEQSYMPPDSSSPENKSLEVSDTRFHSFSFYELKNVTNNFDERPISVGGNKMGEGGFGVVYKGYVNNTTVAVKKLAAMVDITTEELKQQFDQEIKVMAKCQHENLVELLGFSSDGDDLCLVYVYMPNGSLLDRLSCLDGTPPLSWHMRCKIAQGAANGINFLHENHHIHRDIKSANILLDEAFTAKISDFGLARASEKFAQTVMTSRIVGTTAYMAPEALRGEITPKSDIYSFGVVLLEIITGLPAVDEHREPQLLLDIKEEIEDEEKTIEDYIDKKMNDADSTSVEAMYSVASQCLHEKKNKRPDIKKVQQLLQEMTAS
Assay: IRAK4 Enzymatic DELFIA Assay, Protocol A
Assay type: biochemical
Conditions: human IRAK4 FL, 0.6 mM ATP (KM); read-out: IRAK4 DELFIA Protocol A IC50
pIC50: −log10 of the molar value.
Measure name: pIC50

Compound | Meas value
COc1cc2c(OC[C@H]3NC(=O)[C@](C)(F)[C@H]3C)nccc2cc1C(N)=O [Example 237] | 6.53
Cc1nccc(-c2cnc(OC[C@@H]3CCC(=O)N3)c3cc(OC(C)C)c(C(N)=O)cc23)n1 [Example 379] | 6.30
CC[C@@H]1[C@H](F)C(=O)N[C@@H]1COc1nccc2cc(C(N)=O)c(OCCOC)cc12 [Example 339] | 7.05
COc1cc2c(OC[C@@H]3C[C@H](C)C(=O)N3)nccc2cc1C(N)=O [Example 242] | 6.58
CC(C)Oc1cc2c(OC[C@@H]3CCC(=O)N3)nccc2cc1C#N [Example 03] | 6.24
C#CCOc1cc2c(OC[C@@H]3CCC(=O)N3)nccc2cc1C(N)=O [Example 318] | 5.71
CC[C@@H]1[C@H](F)C(=O)N[C@@H]1COc1nccc2cc(C(N)=O)c(OC)c(F)c12 [Example 361] | 8.32
CC(C)Oc1cc2c(OC[C@@H]3CC(F)(F)C(=O)N3)nccc2cc1C(N)=O [Example 128] | 9.52
COc1cc2c(OC[C@H]3NC(=O)[C@@H](C)[C@@H]3CF)nccc2cc1C(N)=O [Example 254] | 5.53
CC[C@]1(F)C[C@@H](COc2nccc3cc(C(N)=O)c(OC(C)C)cc23)NC1=O [Example 131] | 9.22
CC(C)Oc1cc2c(OC[C@]3(C)CCC(=O)N3)nccc2cc1C(N)=O [Example 126] | 7.38
CCOc1cc2c(OC[C@H]3NC(=O)[C@@H](F)[C@H]3C)ccnc2cc1C(N)=O [Example 279] | 8.92
CC(C)Oc1cc2c(OC[C@@H]3C[C@](C)(F)C(=O)N3)ccnc2cc1C(N)=O [Example 269] | 9.22
CC(C)Oc1cc2c(OC[C@@H]3CC(F)C(=O)N3)nccc2cc1C(N)=O (some centres unmarked) [Example 112] | 9.00
COc1cc2c(OC[C@H]3NC(=O)C[C@@H]3CF)nccc2cc1C(N)=O [Example 249] | 7.70
C=C[C@@H]1CC(=O)N[C@@H]1COc1nccc2cc(C(N)=O)c(OC)cc12 [Example 251] | 8.47
CC(C)Oc1cc2c(OC[C@@H]3CCC(=O)N3)ncc(F)c2cc1C(N)=O [Example 168] | 8.18
